- target.of.assay: EGFR^T790M (Homo sapiens, UniProt P00533, T790M)
- Sequence (P00533 25-1210 T790M): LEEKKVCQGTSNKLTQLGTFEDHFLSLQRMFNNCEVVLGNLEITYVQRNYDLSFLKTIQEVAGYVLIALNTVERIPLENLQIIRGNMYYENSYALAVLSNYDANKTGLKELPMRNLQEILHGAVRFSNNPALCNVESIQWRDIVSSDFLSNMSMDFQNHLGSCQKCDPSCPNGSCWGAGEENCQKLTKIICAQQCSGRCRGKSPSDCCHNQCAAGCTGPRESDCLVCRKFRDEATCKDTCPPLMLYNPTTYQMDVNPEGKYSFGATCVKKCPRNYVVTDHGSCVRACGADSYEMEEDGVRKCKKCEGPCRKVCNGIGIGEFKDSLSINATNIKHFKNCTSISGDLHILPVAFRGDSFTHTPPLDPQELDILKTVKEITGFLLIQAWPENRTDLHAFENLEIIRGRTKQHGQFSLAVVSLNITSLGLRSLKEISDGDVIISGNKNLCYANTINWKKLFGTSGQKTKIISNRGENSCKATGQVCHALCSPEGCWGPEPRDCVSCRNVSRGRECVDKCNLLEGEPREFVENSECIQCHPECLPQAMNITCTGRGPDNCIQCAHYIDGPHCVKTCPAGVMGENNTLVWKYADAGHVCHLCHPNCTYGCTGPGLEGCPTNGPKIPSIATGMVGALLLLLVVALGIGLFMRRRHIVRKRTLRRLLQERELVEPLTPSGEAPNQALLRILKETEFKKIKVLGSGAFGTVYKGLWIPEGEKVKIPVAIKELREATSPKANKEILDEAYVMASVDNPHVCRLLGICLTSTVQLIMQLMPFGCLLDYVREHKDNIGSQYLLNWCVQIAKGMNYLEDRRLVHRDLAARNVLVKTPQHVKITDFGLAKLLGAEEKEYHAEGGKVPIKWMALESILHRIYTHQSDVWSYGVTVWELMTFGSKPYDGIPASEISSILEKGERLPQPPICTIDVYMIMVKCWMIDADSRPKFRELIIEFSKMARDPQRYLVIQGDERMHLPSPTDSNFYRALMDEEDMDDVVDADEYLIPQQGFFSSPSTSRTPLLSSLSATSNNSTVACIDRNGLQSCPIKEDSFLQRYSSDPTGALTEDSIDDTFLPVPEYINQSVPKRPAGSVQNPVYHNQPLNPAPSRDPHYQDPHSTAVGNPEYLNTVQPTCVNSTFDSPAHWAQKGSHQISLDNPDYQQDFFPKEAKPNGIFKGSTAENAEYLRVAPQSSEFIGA
- assay.text: biochemical
Below, each entry is listed alongside its reported pIC50.
Note on pIC50: it is the negative log10 of concentration, concentration in mol/L.

compound	target.of.assay	pIC50
CO/C=C/c1c(C(=O)NCCc2ccc(N3CCCC3C)cc2)[nH]c2ccc(Cl)cc12 (centres unmarked)	EGFR^T790M (Homo sapiens, UniProt P00533, T790M)	8.02

[in] If you can, please state the reported pIC50 value of CO/C=C/c1c(C(=O)NCCc2ccc(N3CCOCC3)cc2)[nH]c2ccc(Cl)cc12 .
[out] 7.92
